# credit: ChEMBL document CHEMBL3988442

Kindly supply the reported Percent Effect values for the records listed here.
# Subject Of Test: Proteasome subunit beta (Trypanosoma cruzi)
# Assay Name: Trypanosoma cruzi proteasome chymotrypsin-like activity (TcProtChymo) assay. Further: in the data most compounds retested in dose-response had high values.
# Format: functional
# Design: scale not given: direction of the effect not stated beside the values
# Condition Details: 9.37 µM
Answers are plain numbers, in %.

# example entries with known answers
[
  {
    "Compound": "Cc1ccccc1CN1CCC2(COCc3cnc(N(C)C)nc32)C1 (centres undefined)",
    "Property": "Percent Effect",
    "Recorded Result": 8.65
  },
  {
    "Compound": "COCc1ccccc1CNc1cc(N2CCCC2CO)ncn1 (centres undefined)",
    "Property": "Percent Effect",
    "Recorded Result": 11.7
  },
  {
    "Compound": "Cc1nc[nH]c1CN1C[C@@H]2CC[C@H](C1)N(C(=O)CCNS(C)(=O)=O)C2",
    "Property": "Percent Effect",
    "Recorded Result": 3.33
  },
  {
    "Compound": "Cc1cnc(CN(C)C2CCN(CCc3ccccn3)CC2)cn1",
    "Property": "Percent Effect",
    "Recorded Result": 14.5
  },
  {
    "Compound": "CN(Cc1ccccn1)C1CC2(CCN(Cc3cccnc3)CC2)C1",
    "Property": "Percent Effect",
    "Recorded Result": 9.6
  },
  {
    "Compound": "COc1cc(CN2CC[C@@]3(CCCO3)[C@@H](O)C2)ccc1F",
    "Property": "Percent Effect",
    "Recorded Result": 3.74
  }
]

Hi! Can you tell me Percent Effect for each of these compounds?
1. CCc1cnc(CN(C)C2CCN(CCc3cccs3)C2)o1 (centres undefined)
2. CC(=O)c1c(F)cccc1N1CCC(Cc2cccnc2)CC1
3. CCc1ccc(CN2C[C@@H]3OCCN(c4ccnc(N(C)C)n4)[C@@H]3C2)o1
4. Cc1nc2ccccc2c(=O)n1CCC(=O)N1CCNC(=O)C1
5. Cc1cc(NC(=O)CN2CCc3cnc(C)nc3C2)on1
6. Cc1ccc(NC2CCN(C(=O)COCC(F)(F)F)CC2)nn1
7. CC(COc1ccc(F)cc1F)NC(=O)NCCN1CCOCC1 (centres undefined)
8. CC(C)OCCCN1CCCC(c2nc3ccccc3n2C(C)C)C1 (centres undefined)

Reply:
12.3
-1.46
7.28
3.51
9.39
10.1
16
15

Quick one: give me Percent Effect for each item below, same order please.
1. COc1ccc2c(c1)CCN(CCC(=O)NC1CCCCC1)CC2
2. CCC(CNC(=O)Nc1cnn(CC)c1)N1CCCC1 (centres undefined)
3. COc1ccc(C(=O)N(C)Cc2cccc(C#N)c2)c(OC)c1OC

Reply:
[15.3, 8.27, 14.3]

// input: 2 compounds below; output: Percent Effect for each
1. Cc1ccc(CN2CCCC3(CCN(S(C)(=O)=O)C3)C2)o1 (centres undefined)
2. O=c1cc2c(nn1CN1CCN(c3cccc(Cl)c3)CC1)CCC2

Reply:
[3.96, 19]

###

Assignment: determine reported Percent Effect for the given molecules.
# Subject Of Test: Sialic acid-binding Ig-like lectin 9 (Homo sapiens)
# Assay Name: Hs-Siglec9 ALPHAscreen SOP 20170721
# Set-up: scale not given: direction of the effect not stated beside the values
# Condition Details: 10 µM
Give bare numbers, in %.

Solved entries (count: 6):
[
  {
    "Molecule": "O=C(c1cnn2c1OCCC2)N1CCN(C/C=C/c2ccccc2)CC1",
    "Subject Of Test": "Sialic acid-binding Ig-like lectin 9 (Homo sapiens)",
    "Percent Effect / %": 6.1
  },
  {
    "Molecule": "COc1ccc(CN2C[C@H]3CC[C@](O)(c4ccc(C)cn4)[C@H]3C2)c(F)c1",
    "Subject Of Test": "Sialic acid-binding Ig-like lectin 9 (Homo sapiens)",
    "Percent Effect / %": 2.69
  },
  {
    "Molecule": "CN(Cc1nc(-c2ccco2)no1)C1CCCN(c2cccnn2)C1 (centres undefined)",
    "Subject Of Test": "Sialic acid-binding Ig-like lectin 9 (Homo sapiens)",
    "Percent Effect / %": -5.93
  },
  {
    "Molecule": "COc1cc(CN(C)C(=O)NCCC2CCCO2)ccc1SC (centres undefined)",
    "Subject Of Test": "Sialic acid-binding Ig-like lectin 9 (Homo sapiens)",
    "Percent Effect / %": 2.6
  },
  {
    "Molecule": "O=C(c1ncccn1)N1C[C@H]2CCC[C@@]2(COCC2CCOCC2)C1",
    "Subject Of Test": "Sialic acid-binding Ig-like lectin 9 (Homo sapiens)",
    "Percent Effect / %": -7.31
  },
  {
    "Molecule": "Cc1nn(C)c(C)c1C1CCCN1C(=O)c1ccc(NC2CC2)nc1 (centres undefined)",
    "Subject Of Test": "Sialic acid-binding Ig-like lectin 9 (Homo sapiens)",
    "Percent Effect / %": 10.9
  }
]

Below are 2 molecules. Give each one its Percent Effect.
1. CCCN(C)C(=O)c1ccc2c(c1)[nH]c(=O)n2CCOCC
2. COc1cnc(N2CCC(Oc3ccccc3OC)(C(=O)O)CC2)nc1

Reply:
42
4.04

// each molecule listed below needs its Percent Effect
1. CCN(C(=O)CCCOc1ccccc1F)c1ccncc1
2. Cc1nc(C2CCCN(C(=O)c3scnc3C)C2)no1 (centres undefined)
3. c1ccc(-c2nc(CNC3CCc4ncnn4C3)co2)cc1 (centres undefined)
4. CC(=O)N1CCCC1c1ccc(-c2c(C)noc2C)cn1 (centres undefined)
5. O=C(NC1CC1)[C@@H]1CCO[C@@H]2CCN(Cc3ccsc3)C[C@H]21
6. CCNC(c1cccnc1)c1ccc(F)c(F)c1 (centres undefined)
7. Cc1ccsc1C(=O)N1CC(C(=O)NCC2CC2)C2(CCOCC2)C1 (centres undefined)
8. O=C(NCCc1ccccn1)NC1CCN(c2ncccn2)CC1

Reply:
1. 5.73
2. 8.6
3. 12.6
4. 2.83
5. 0.445
6. 2.25
7. -3.49
8. 3.94

Please state Percent Effect for every molecule in the list that follows.
1. CCCNC(=O)c1cc2c([nH]c1=O)CC(c1cccs1)CC2=O (centres undefined)
2. CNS(=O)(=O)c1cccc(C(C)NCc2cccc(OC)c2)c1 (centres undefined)
3. CCn1cc(CN(C)S(=O)(=O)c2ccc(Cl)cc2)cn1

Reply:
3.54
-2.94
-5.16
